From: patent US20100272750A1

target or system: HLA DRB1*1201 (human)
test summary: competition with 125I probe peptide, purified HLA; crude peptide batch
recorded endpoint: pIC50
// pIC50: -log10(molar conc.)

Q. Name the reported pIC50 value associated with the binder LQAIELQLTLETIYN (modifications not checked) [HPV16.E2.070 HTL epitope]
A. 6.57
